Assay System: HIV-1 protease (Human immunodeficiency virus type 1 group M subtype B, UniProt P04585)
Construct: The protease (or proteinase), consisting of only 99 amino acids, is among the smallest enzymes known
Measurement Description: In vitro HIV protease inhibitory assay (HIV Protease FITC Assay)
Format: biochemical
Assay Setup: HIV-1 Dose 11.000 uM; read-out: HIV-1 Protease % Inhib
Reported inhibition at 11 µM values for a set of compounds
Reply with just the number (in %).

Guide cases for inhibition at 11 µM, answers given:
CCC(Cc1c(C)noc1C)c1cc(O)c(C(c2ccccc2)C2CC2)c(=O)o1 (stereo not shown): 113
C=CC(C1=C(O)CC2(CCC3(CC2)OCCO3)OC1=O)c1ccccc1 (stereo not shown): 79.7
CCC(Cc1csc(-c2ccc(Cl)cc2)n1)c1cc(O)c(C(c2ccccc2)C2CC2)c(=O)o1 (stereo not shown): 92.1

Next up:
Q) # get_value(readout='inhibition at 11 µM', item= CCC(c1ccccc1)c1c(O)c(Br)c(CCc2ccccc2)oc1=O (stereo not shown) )
A) 103

---

Assay System: HIV-1 protease (Human immunodeficiency virus type 1 group M subtype B, UniProt P04585)
Construct: The protease (or proteinase), consisting of only 99 amino acids, is among the smallest enzymes known
Measurement Description: In vitro HIV protease inhibitory assay (HIV Protease FITC Assay)
Type: biochemical
Assay Setup: read-out: HIV-1 FITC Ki
Measure: pKi
A value of pKi is the negative decimal logarithm of a concentration given in moles per litre.

CC(C)CC1(CCc2ccccc2)CC(O)=C(C(/C=C/c2ccccc2)c2ccccc2)C(=O)O1 (stereo not shown) [Example 210]: 7.11
CCCC1(CCCc2ccccc2)CC(O)=C(C(C=Cc2ccccc2)c2ccccc2)C(=O)O1 (stereo not shown) [Example 238]: 6.79
CCC(Cc1ccc(Cl)cc1)c1cc(O)c(C(c2ccccc2)C2CC2)c(=O)o1 (stereo not shown) [Example 155]: 7.18

Next up:
Q) # get_value(readout='pKi', item= CCC(Cc1ccncc1)c1cc(O)c(C(c2ccccc2)C2CC2)c(=O)o1 (stereo not shown) [Example 68] )
A) 6.88

---

Reported inhibition at 0.37 µM values for a set of molecules
Assay System: HIV-1 protease (Human immunodeficiency virus type 1 group M subtype B)
Construct: The protease (or proteinase), consisting of only 99 amino acids, is among the smallest enzymes known
Measurement Description: In vitro HIV protease inhibitory assay (HIV Protease FITC Assay)
Assay type: biochemical
Assay Setup: HIV-1 Dose 0.370 uM; read-out: HIV-1 Protease % Inhib

Guide cases for inhibition at 0.37 µM, answers given:
CCC(c1ccccc1)c1cc(O)c(C(CC)c2ccccc2)c(=O)o1 (stereo not drawn): < 10%
CCC(Cc1ccccc1)c1cc(O)c(C(c2cccc(NC(=O)Nc3ccc(OC)cc3)c2)C2CC2)c(=O)o1 (stereo not drawn): < 10%

Next up:
Q) # get_value(readout='inhibition at 0.37 µM', item= CCC(C1=C(O)CC2(CCC(O)CC2)OC1=O)c1ccccc1 (stereo not drawn) )
A) < 10%

---

Assay System: HIV-1 protease (Human immunodeficiency virus type 1 group M subtype B)
Construct: The protease (or proteinase), consisting of only 99 amino acids, is among the smallest enzymes known
Measurement Description: In vitro HIV protease inhibitory assay (HIV Protease FITC Assay)
Assay type: biochemical
Assay Setup: HIV-1 Dose 30.000 uM; read-out: HIV-1 Protease % Inhib
Measure: inhibition at 30 µM (%)
Reply with just the number (in %).

Guide cases for inhibition at 30 µM, answers given:
CCC(C1=C(O)CC2(CCC(O)CC2)OC1=O)c1ccccc1 (stereo not drawn) [Example 116]: 89.9
CCCCC1(Cc2ccccc2)CC(O)=C(C(C=Cc2ccccc2)c2ccccc2)C(=O)O1 (stereo not drawn) [Example 217]: 69.1
CC(C)CC1(CCc2ccccc2)CC(O)=C(C(/C=C/c2ccccc2)c2ccccc2)C(=O)O1 (stereo not drawn) [Example 210]: 86
O=C1OC(CCc2ccccc2)(CCc2ccccc2)CC(O)=C1C(CCc1ccccc1)c1ccccc1 (stereo not drawn) [Example 237]: 78.2
C=CC(C1=C(O)CC2(CCOCC2)OC1=O)c1ccccc1 (stereo not drawn) [Example 121]: 68.5
C=CC(C1=C(O)CC(CCCC)(Cc2ccccc2)OC1=O)c1ccccc1 (stereo not drawn) [Example 219]: 90.2
CCC(Cc1ccccc1)c1cc(O)c(C(c2cccc(NS(=O)(=O)CC)c2)C2CC2)c(=O)o1 (stereo not drawn) [Example 247]: 97
CCC(Cc1cccc(C(F)(F)F)c1)c1cc(O)c(C(c2ccccc2)C2CC2)c(=O)o1 (stereo not drawn) [Example 161]: 105

Next up:
Q) Record lookup: for HIV-1 protease (Human immunodeficiency virus type 1 group M subtype B), what inhibition at 30 µM belongs to CCC(CC1=CCCOC1)c1cc(O)c(C(c2ccccc2)C2CC2)c(=O)o1 (stereo not drawn) [Example 76] ?
A) 105

---

Assay System: HIV-1 protease (Human immunodeficiency virus type 1 group M subtype B, UniProt P04585)
Construct: The protease (or proteinase), consisting of only 99 amino acids, is among the smallest enzymes known
Measurement Description: In vitro HIV protease inhibitory assay (HIV Protease FITC Assay)
Assay type: biochemical
Assay Setup: HIV-1 Dose 1.000 uM; read-out: HIV-1 Protease % Inhib
Measure: inhibition at 1 µM (%)
Reply with just the number (in %).

Guide cases for inhibition at 1 µM, answers given:
CCC(CC)c1cc(O)c(C(CC)c2ccccc2)c(=O)o1 (stereo not shown): 40.2
Cc1noc(C)c1CCc1cc(O)c(C(c2ccccc2)C2CC2)c(=O)o1 (stereo not shown): 44.6
CCC(c1ccccc1)c1c(O)cc(CCc2ccccc2)oc1=O (stereo not shown): 19
C=CC(c1ccccc1)c1c(O)cc(CCc2ccccc2)oc1=O (stereo not shown): 17.5
O=c1oc(CCc2ccccc2)cc(O)c1C(C1CC1)C1CC1: 19.8

Q) Record lookup: for HIV-1 protease (Human immunodeficiency virus type 1 group M subtype B, UniProt P04585), what inhibition at 1 µM belongs to CCC(CC1CC1)c1cc(O)c(C(c2ccccc2)C2CC2)c(=O)o1 (stereo not shown) ?
A) 61.2

Q) Record lookup: for HIV-1 protease (Human immunodeficiency virus type 1 group M subtype B, UniProt P04585), what inhibition at 1 µM belongs to CCC(c1ccccc1)c1c(O)c(Br)c(CCC2CC2)oc1=O (stereo not shown) ?
A) 38.3

Q) Record lookup: for HIV-1 protease (Human immunodeficiency virus type 1 group M subtype B, UniProt P04585), what inhibition at 1 µM belongs to CCC(c1ccccc1)c1c(O)cc(C(CC2CC2)CC2CC2)oc1=O (stereo not shown) ?
A) 17.8

Q) Record lookup: for HIV-1 protease (Human immunodeficiency virus type 1 group M subtype B, UniProt P04585), what inhibition at 1 µM belongs to COCCOCCCc1cc(O)c(C(c2ccccc2)C2CC2)c(=O)o1 (stereo not shown) ?
A) 33.8

Q) Record lookup: for HIV-1 protease (Human immunodeficiency virus type 1 group M subtype B, UniProt P04585), what inhibition at 1 µM belongs to CCCC(CCC)c1cc(O)c(C(CC)c2ccccc2)c(=O)o1 (stereo not shown) ?
A) 37.2

Q) Record lookup: for HIV-1 protease (Human immunodeficiency virus type 1 group M subtype B, UniProt P04585), what inhibition at 1 µM belongs to CC(CC1CC1)(c1cc(O)c(C(C2CC2)C2CC2)c(=O)o1)C1CC1 (stereo not shown) ?
A) 54.8

Q) Record lookup: for HIV-1 protease (Human immunodeficiency virus type 1 group M subtype B, UniProt P04585), what inhibition at 1 µM belongs to CCC(Cc1ccccc1)c1cc(O)c(C(CC)c2ccccc2)c(=O)o1 (stereo not shown) ?
A) 79.5

Q) Record lookup: for HIV-1 protease (Human immunodeficiency virus type 1 group M subtype B, UniProt P04585), what inhibition at 1 µM belongs to CCC(Cc1ccccc1)c1cc(O)c(C(c2ccccc2)C2CC2)c(=O)o1 (stereo not shown) ?
A) 58.1

Q) Record lookup: for HIV-1 protease (Human immunodeficiency virus type 1 group M subtype B, UniProt P04585), what inhibition at 1 µM belongs to O=c1oc(C(Cc2ccccc2)CC2CC2)cc(O)c1C(c1ccccc1)C1CC1 (stereo not shown) ?
A) 46.2

---

Reported inhibition at 1.23 µM values for a set of compounds
Assay System: HIV-1 protease (Human immunodeficiency virus type 1 group M subtype B, UniProt P04585)
Construct: The protease (or proteinase), consisting of only 99 amino acids, is among the smallest enzymes known
Measurement Description: In vitro HIV protease inhibitory assay (HIV Protease FITC Assay)
Assay type: biochemical
Assay Setup: HIV-1 Dose 1.230 uM; read-out: HIV-1 Protease % Inhib
Reply with just the number (in %).

Q) # get_value(readout='inhibition at 1.23 µM', item= CCC(CC1CCCOC1)c1cc(O)c(C(c2ccccc2)C2CC2)c(=O)o1 (stereo not shown) )
A) 101

Q) # get_value(readout='inhibition at 1.23 µM', item= O=c1oc(CCC2OCCO2)cc(O)c1C(c1ccccc1)C1CC1 (stereo not shown) )
A) 19.4

Q) # get_value(readout='inhibition at 1.23 µM', item= CCC(CC1OCCO1)c1cc(O)c(C(c2ccccc2)C2CC2)c(=O)o1 (stereo not shown) )
A) 86.7

Q) # get_value(readout='inhibition at 1.23 µM', item= CCC(Cc1ccco1)c1cc(O)c(C(c2ccccc2)C2CC2)c(=O)o1 (stereo not shown) )
A) 81.2

Q) # get_value(readout='inhibition at 1.23 µM', item= CCCc1oc(=O)c(C(CC)c2ccccc2)c(O)c1Br (stereo not shown) )
A) 51.8
